tested on: Prunus dulcis; assay: Inhibition of almond beta-glucosidase assessed as release of p-nitrophenol at 1000 uM using p-nitrophenyl glycoside as substrate by spectrometric assay relative to control
Provide the reported inhibition of each item.
Write down the numeric answer in % and omit the unit.

In: Reported inhibition for Prunus dulcis, given Cc1ccc([C@@]2(CO)NC[C@H](O)[C@H]2O)cc1 ?
Out: 7.8

In: Input Cc1ccc([C@]2(CO)NC[C@@H](O)[C@@H]2O)cc1
Out: 8.7

In: Same thing, different compound: OC[C@]1(c2c(F)c(F)c(F)c(F)c2F)NC[C@H](O)[C@H]1O
Out: 4.6

In: Now the same for CCCC[C@]1(CO)NC[C@@H](O)[C@@H]1O
Out: 8

In: Another compound: OC[C@@]1(c2ccc(O)cc2)NC[C@@H](O)[C@@H]1O
Out: 8.7

In: Entry to check: COc1ccc([C@]2(CO)NC[C@@H](O)[C@@H]2O)cc1
Out: 2.7

In: And what about the compound COc1ccc([C@]2(CO)NC[C@@H](O)[C@@H]2O)cc1OC ?
Out: 0

In: Proceed to C[C@@]1(CO)NC[C@H](O)[C@H]1O
Out: 6.2

In: Also need C[C@]1(CO)NC[C@@H](O)[C@@H]1O , thanks.
Out: 6.8

In: What do we get for CCCCCCCCC[C@]1(CO)NC[C@@H](O)[C@@H]1O ?
Out: 6.8

In: Thanks! And OC[C@@]1(c2c(F)c(F)c(F)c(F)c2F)NC[C@@H](O)[C@@H]1O ?
Out: 5.2

In: For OC[C@]1(c2ccc(F)cc2)NC[C@H](O)[C@H]1O then?
Out: 4.6

In: Now consider CCCC[C@@]1(CO)NC[C@H](O)[C@H]1O .
Out: 0.9

In: Same question, COc1cccc([C@@]2(CO)NC[C@H](O)[C@H]2O)c1 this time
Out: 1.7

In: And for OC[C@@]1(c2ccc(F)cc2)NC[C@@H](O)[C@@H]1O ?
Out: 0.6

In: Okay, and COc1ccc([C@@]2(CO)NC[C@H](O)[C@H]2O)cc1OC ?
Out: 0

In: Thanks! And OC[C@@]1(c2cccc(F)c2)NC[C@@H](O)[C@@H]1O ?
Out: 0.9

In: Here is the next compound: OC[C@@]1(c2ccccc2)NC[C@@H](O)[C@@H]1O
Out: 2.3

In: Also need OC[C@]1(c2cccc(F)c2)NC[C@H](O)[C@H]1O , thanks.
Out: 0

In: Another compound to check: OC[C@]1(c2ccccc2)NC[C@H](O)[C@H]1O
Out: 0.9

In: Now this one: OC[C@]1(c2ccc(O)cc2)NC[C@H](O)[C@H]1O
Out: 14.8

In: Same question, CCCCCCCCC[C@@]1(CO)NC[C@H](O)[C@H]1O this time
Out: 0

In: Field entry: COc1ccc([C@@]2(CO)NC[C@H](O)[C@H]2O)cc1
Out: 7.1

In: Subsequent entry: COc1cccc([C@]2(CO)NC[C@@H](O)[C@@H]2O)c1
Out: 7.8
